# system: glucocerebrosidase (Gcase) (Homo sapiens, UniProt P04062)
# Construct: micellar solution containing 10 nM GCase and 100 nM saposin C (Enzo ALX-201-262-C050)
# Sequence (P04062 40-536): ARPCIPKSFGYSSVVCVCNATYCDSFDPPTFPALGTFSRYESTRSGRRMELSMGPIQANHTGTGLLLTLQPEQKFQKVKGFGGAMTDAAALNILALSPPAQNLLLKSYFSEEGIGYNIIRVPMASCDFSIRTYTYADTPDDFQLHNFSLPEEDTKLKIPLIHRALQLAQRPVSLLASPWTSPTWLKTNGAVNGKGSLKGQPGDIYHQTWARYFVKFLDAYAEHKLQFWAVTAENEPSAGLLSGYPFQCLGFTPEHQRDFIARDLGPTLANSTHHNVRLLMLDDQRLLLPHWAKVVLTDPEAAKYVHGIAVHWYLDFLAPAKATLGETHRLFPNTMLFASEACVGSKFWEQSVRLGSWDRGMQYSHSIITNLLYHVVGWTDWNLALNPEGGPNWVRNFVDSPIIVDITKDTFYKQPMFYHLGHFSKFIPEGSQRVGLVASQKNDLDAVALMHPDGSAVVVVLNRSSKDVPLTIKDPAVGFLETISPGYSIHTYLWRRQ
# method_description: Glucocerebrosidase (Gcase) activation assay, 4-methylumbelliferyl-beta-D-glucopyranoside substrate, with saposin C
# Format: biochemical
# condition_details: read-out: Percent Gcase Activation 0.1 μM Test Compound
measurement_label: activation at 0.1 µM

The reported activation at 0.1 µM of the compound Cc1cccc2ncc(C(=O)NC3CCOCC3)c(=O)n12 was < 5%

The reported activation at 0.1 µM of the compound Cc1cccc2ncc(C(=O)NC3CCOc4ccccc43)c(=O)n12 (stereo not drawn) was < 5%

The reported activation at 0.1 µM of the compound Cc1csc2ncc(C(=O)Nc3ccc(Oc4ccccc4)cc3)c(=O)n12 was 5 to 20%

The reported activation at 0.1 µM of the compound Cc1cccc2ncc(C(=O)Nc3ccc4c(c3)CN(C)C4)c(=O)n12 was < 5%

The reported activation at 0.1 µM of the compound O=C(Nc1ccc(C2CCCCC2)cc1)c1cnc2n(c1=O)CCS2 was 5 to 20%

The reported activation at 0.1 µM of the compound CN1Cc2ccc(NC(=O)c3cnc4n(c3=O)CCS4)cc2C1 was < 5%

The reported activation at 0.1 µM of the compound O=C(Nc1ccc2c(c1)CCC2)c1cnc2n(c1=O)CCS2 was < 5%

The reported activation at 0.1 µM of the compound O=C(NC1CCCCCC1)c1cnc2n(c1=O)CCS2 was < 5%

The reported activation at 0.1 µM of the compound O=C(Nc1ccc(-n2ccnc2)cc1)c1cnc2n(c1=O)CCS2 was < 5%

The reported activation at 0.1 µM of the compound COCC#Cc1ccc(NC(=O)c2cnc3n(c2=O)CCS3)cc1 was 5 to 20%

The reported activation at 0.1 µM of the compound Cc1cccc2ncc(C(=O)Nc3ccc4c(c3)OCCO4)c(=O)n12 was < 5%

The reported activation at 0.1 µM of the compound CCCCc1ccc(NC(=O)c2cnc3scc(C)n3c2=O)cc1 was 5 to 20%

The reported activation at 0.1 µM of the compound O=C(NC1CCc2ccccc2C1)c1cnc2n(c1=O)CCS2 (stereo not drawn) was < 5%

The reported activation at 0.1 µM of the compound CCC(C)c1ccc(NC(=O)c2cnc3c(C)cccn3c2=O)cc1 (stereo not drawn) was < 5%

The reported activation at 0.1 µM of the compound O=C(NC1CCC(c2ccccc2)CC1)c1cnc2n(c1=O)CCS2 (stereo not drawn) was 5 to 20%
